Assay: qHTS assay for small molecule disruptors of the mitochondrial membrane potential (AID 720635); also: % is scaled to controls: 0 for no effect and ±100 for the full control effect
Settings: HepG2 mitochondrial membrane potential, Mito-MPS dye ratio; series mostly up to 83.2 µM
Results filed as inconclusive are left out. Activity calls are given as the source filed them. Calls follow the shape of the dose curve; as a rule, active = well fitted inhibition curve with a large enough effect in the signal ratio in the repeat runs; inconclusive = weak or mixed curves, or effect the other way; inactive = flat fitted curve, though single readings scatter; the % refers to the signal ratio.
Would you mind answering with one of these outcomes? TRUE = active, FALSE = inactive

compound	cat
C1CCCCC1	FALSE
Nc1ccc(S(=O)(=O)NCc2ccccc2)cc1	FALSE
CCCCCCOC(=O)CCCCC	FALSE
CCO[Si](C)(CCCOCC1CO1)OCC (centres undefined)	FALSE
CC(C)OC(=O)c1ccccc1C(=O)OC(C)C	FALSE

Prompt: Please share the test call associated with CC[C@@H](CO)NCCN[C@@H](CC)CO .
Response: FALSE

Prompt: Same lookup for CCCCCCCCCCCCCCN(C)C , please.
Response: FALSE

Prompt: Same lookup for C=CC(=O)O , please.
Response: FALSE

----------
Assay: qHTS assay to identify small molecule agonists of the androgen receptor (AR) signaling pathway in the presence of an antagonist - cell viability counter screen (AID 1259379);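 also: MDA-kb2 human breast cancer cells carrying an MMTV luciferase reporter; % is scaled to controls: 0 for no effect and ±100 for the full control effect; nearly all actives have a fitted effect of over 25% in size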
Conditions: MDA-kb2 viability, CellTiter-Fluor, 16 h; series mostly up to 92.4 µM
Results filed as inconclusive are left out. Activity calls are given as the source filed them. The call rests on the fitted dose curve; in most records, active means well fitted cell-killing curve with a large enough effect in the repeat runs; inconclusive means weak or mixed curves, or effect the other way; inactive means flat fitted curve, though single readings scatter.
observedProperty: outcome

compound	observedProperty	resultValue
O=[N+]([O-])C1(Br)COCOC1	outcome	inactive
COC(OC)OC	outcome	inactive
C[C@H](CS)C(=O)N1CCC[C@H]1C(=O)O	outcome	inactive
O=C(O)c1ccc(O)cc1O	outcome	inactive
CC(C)(O)c1coc(S(=O)(=O)NC(=O)Nc2c3c(cc4c2CCC4)CCC3)c1	outcome	inactive

Quick request: outcome for each listed item, please.
1. O=C(NC(Cc1cc(=O)[nH]c2ccccc12)C(=O)O)c1ccc(Cl)cc1 (configuration not stated)
2. SCCc1cnccn1

Response:
inactive
inactive

----------
Test: qHTS assay to identify small molecule antagonists of the androgen receptor (AR) signaling pathway using the MDA cell line in the presence of 0.5 nM R1881 - cell viability counter screen (AID 1259242); also: % is scaled to controls: 0 for no effect and ±100 for the full control effect; nearly all actives have a fitted effect of over 45% in size
Conditions: MDA-kb2 viability, CellTiter-Fluor protease fluorescence, 16 h; series mostly up to 92.4 µM
Results filed as inconclusive are left out. Active and inactive are the calls of the source. Calls follow the shape of the dose curve; as a rule, active = well fitted cell-killing curve with a large enough effect in the repeat runs; inconclusive = weak or mixed curves, or effect the other way; inactive = flat fitted curve, though single readings scatter.
observedProperty: viability change, negative = cytotoxic

Recorded results for 5 molecules are shown here.
molecule	viability change, negative = cytotoxic
O=c1[nH]c2cc(C(F)(F)F)c(N3CCOCC3)cc2n(CP(=O)(O)O)c1=O	inactive
CNCc1ccc(NC(=O)c2c[nH]c3c2C(=O)CCC3)cc1	inactive
Cc1ccc(Cl)cc1N	inactive
CC(C)(C)NCC(O)COc1cccc2c1C[C@H](O)[C@H](O)C2 (stereo partly drawn)	inactive
O=C(O)CN1C(=O)c2cccc3cccc(c23)C1=O	inactive

Quick request: viability change, negative = cytotoxic for each listed item, please.
1. O=C(Oc1ccccc1)c1ccc2ccccc2c1O
2. CCOCCC(=O)OCC
3. CC[C@H]1OC(=O)[C@H](C)[C@@H](O[C@H]2C[C@@](C)(OC)[C@@H](O)[C@H](C)O2)[C@H](C)[C@@H](O[C@@H]2O[C@H](C)C[C@H](N(C)C)[C@H]2O)[C@](C)(O)C[C@@H](C)C(=O)[C@H](C)[C@@H](O)[C@]1(C)O
4. NC(=O)c1ccccc1[N+](=O)[O-]
5. CCCCCCCCCCCCCC(=O)OCC(O)CO (stereo not drawn)

Response:
1: inactive; 2: inactive; 3: inactive; 4: inactive; 5: inactive

Quick request: viability change, negative = cytotoxic for each listed item, please.
1. FC(F)(F)C(F)(F)C(F)(F)C(F)(F)CCI
2. NC(=O)CCCCC(N)=O
3. C=CC(=O)O

Response:
inactive
inactive
inactive

----------
Test: qHTS assay to identify small molecule agonists of H2AX - cell viability counter screen (AID 1224847); also: nearly all actives have a fitted effect of over 30% in size; also: potency is read from the fitted curve at half-maximal effect
Conditions: CHO-K1 viability, CellTiter-Glo luminescence, 3 h; series mostly up to 154 µM
Inconclusive results are not listed. The source made the active and inactive calls. Calls come from the whole dose curve.
observedProperty: Potency

compound	Potency
CC(=O)OC(C)C[N+](C)(C)C (stereo unspecified)	inactive
Cc1cn([C@H]2C[C@H](F)[C@@H](CO)O2)c(=O)[nH]c1=O	inactive
CN1C(CSCC(F)(F)F)Nc2cc(Cl)c(S(N)(=O)=O)cc2S1(=O)=O (stereo unspecified)	inactive
CSSc1ccoc1C	inactive
CC(C)CC(O)CC(C)C	inactive
CC(=O)C(C)=O	inactive
CC(=O)NCCO	inactive
CCCCOCCOC(=O)c1cccnc1	inactive
CNc1c2c(nn1C)CCCC2	inactive
Cc1ccc(Nc2c(F)cccc2Cl)c(CC(=O)O)c1	inactive

Quick request: Potency for each listed item, please.
1. Cc1ccc(N(CC2=NCCN2)c2cccc(O)c2)cc1
2. CCC(C)(C)C(=O)O
3. CC(C)C(O)C(C)(C)CO (stereo unspecified)

Response:
1: inactive; 2: inactive; 3: inactive

Quick request: Potency for each listed item, please.
1. Cc1c(C2(c3cc(Br)c(O)c(Br)c3C)OS(=O)(=O)c3ccccc32)cc(Br)c(O)c1Br
2. CCCCCC
3. Cc1cc(CCC(=O)OCCOCCOCCOC(=O)CCc2cc(C)c(O)c(C(C)(C)C)c2)cc(C(C)(C)C)c1O
4. CCN(CC)CCOc1ccccc1C(=O)CCc1ccccc1
5. O=C1OC(=O)c2c(Br)c(Br)c(Br)c(Br)c21
6. CN=C(N)NC(=O)Nc1c(C)cccc1C

Response:
1: 9.77 µM (active); 2: inactive; 3: inactive; 4: inactive; 5: inactive; 6: inactive

Quick request: Potency for each listed item, please.
1. CC(CCc1ccc(O)cc1)NCCc1ccc(O)c(O)c1 (stereo unspecified)
2. CCC(=O)OCc1ccc(OC)cc1
3. Cc1ccc(NC(=O)N(C)C)cc1NC(=O)N(C)C
4. CC(=O)OCC1=C(C(=O)O)N2C(=O)[C@@H](NC(=O)CSc3ccncc3)[C@H]2SC1
5. COc1ccc(CCN(C)CCCN2CCc3cc(OC)c(OC)cc3CC2=O)cc1OC
6. CC(C)c1ccc(C#N)cc1
7. CC(C)COC(=O)COc1cc(Cl)c(Cl)cc1Cl
8. O=CNNC=O

Response:
["inactive", "inactive", "inactive", "inactive", "inactive", "inactive", "inactive", "inactive"]

----------
Experiment: qHTS assay for small molecule agonists of the antioxidant response element (ARE) signaling pathway (AID 743202); as to activation: % is scaled to controls: 0 for no effect and ±100 for the full control effect
Conditions: HepG2 ARE-bla reporter, beta-lactamase FRET, 16 h; series mostly up to 73.3 µM
Records with an inconclusive call do not appear. Active and inactive are the calls of the source. Calls come from the whole dose curve; as a rule, active = well fitted activation curve with a large enough effect in the signal ratio in the repeat runs (not every such curve was filed as active); inconclusive = weak or mixed curves, or effect the other way; inactive = no such curve, though single readings can be large or run the other way; the % refers to the signal ratio.
Would you mind answering with one of these outcomes? yes (1) (active), no (0) (inactive)

Study these solved cases before continuing.
molecule	cat
O=C(O)c1cc(Cl)cc(Cl)c1O	no (0)
Cc1ccc(Cl)cc1N	no (0)
CC(C)C1CCC(C(=O)N[C@H](Cc2ccccc2)C(=O)O)CC1 (some centres not stated)	no (0)
CCc1ccc(C)cc1	no (0)
CCCCOCCOC(=O)c1cccnc1	no (0)

Prompt: Please share the test call associated with C[C@@H]1C[C@H]2[C@@H]3CCC4=CC(=O)C=C[C@]4(C)[C@@]3(F)[C@@H](O)C[C@]2(C)[C@@]1(O)C(=O)COP(=O)(O)O .
Response: no (0)

Prompt: Same lookup for O=C(O)c1cccc(Oc2ccccc2)c1 , please.
Response: no (0)

Prompt: Same lookup for CC(C)C(=O)OCCOc1ccccc1 , please.
Response: no (0)

Prompt: Same lookup for CSCC[C@H](NC(=O)[C@H](Cc1c[nH]c2ccccc12)NC(=O)CCNC(=O)OC(C)(C)C)C(=O)N[C@@H](CC(=O)O)C(=O)N[C@@H](Cc1ccccc1)C(N)=O , please.
Response: no (0)

Prompt: Same lookup for CCC(CO)(CO)CO , please.
Response: no (0)

Prompt: Same lookup for Cc1cc([N+](=O)[O-])ccc1N , please.
Response: no (0)

Prompt: Same lookup for CCOC(=O)N1CCC(Nc2ccc(Cl)cc2N)CC1 , please.
Response: yes (1)

----------
Target: Androgen receptor (Homo sapiens) (UniProt P10275)
Sequence (P10275 whole entry, looked up): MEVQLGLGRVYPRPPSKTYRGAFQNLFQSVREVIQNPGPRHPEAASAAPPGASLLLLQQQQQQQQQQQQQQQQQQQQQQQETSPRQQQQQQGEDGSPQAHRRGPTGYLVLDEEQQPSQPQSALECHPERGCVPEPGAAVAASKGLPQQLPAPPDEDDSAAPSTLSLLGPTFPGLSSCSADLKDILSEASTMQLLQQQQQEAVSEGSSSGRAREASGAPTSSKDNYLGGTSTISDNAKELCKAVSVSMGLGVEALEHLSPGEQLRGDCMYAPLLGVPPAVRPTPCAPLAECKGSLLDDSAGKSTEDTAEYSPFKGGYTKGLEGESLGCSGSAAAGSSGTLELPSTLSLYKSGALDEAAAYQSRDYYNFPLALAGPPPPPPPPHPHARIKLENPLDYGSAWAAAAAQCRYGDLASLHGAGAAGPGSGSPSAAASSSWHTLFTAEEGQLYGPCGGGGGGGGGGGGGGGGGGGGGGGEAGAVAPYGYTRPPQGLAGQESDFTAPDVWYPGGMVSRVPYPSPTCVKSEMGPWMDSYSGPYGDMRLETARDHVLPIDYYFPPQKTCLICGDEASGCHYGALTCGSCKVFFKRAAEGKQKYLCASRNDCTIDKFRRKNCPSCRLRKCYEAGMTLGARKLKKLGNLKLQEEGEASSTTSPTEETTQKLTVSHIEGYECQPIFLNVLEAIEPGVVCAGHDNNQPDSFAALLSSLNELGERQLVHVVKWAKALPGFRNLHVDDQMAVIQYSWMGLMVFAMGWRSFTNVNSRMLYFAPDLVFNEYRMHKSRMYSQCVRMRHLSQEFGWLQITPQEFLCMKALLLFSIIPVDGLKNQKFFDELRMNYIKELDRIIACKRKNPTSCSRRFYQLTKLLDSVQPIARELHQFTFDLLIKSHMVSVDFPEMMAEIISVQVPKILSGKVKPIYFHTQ
Experiment: qHTS assay to identify small molecule antagonists of the androgen receptor (AR) signaling pathway using the MDA cell line in the presence of 0.5 nM R1881 (AID 1259243); also: nearly all actives have a fitted effect of over 50% in size
Settings: MDA-kb2 MMTV-luciferase, R1881 0.5 nM, 16 h; series mostly up to 92.4 µM
Text: U.S. Tox21 Program National Center for Advancing Translational Sciences [NCATS] NIH Chemical Genomics Center [NCGC] U.S. Environmental Protection Agency [EPA] National Institutes of Environmental Health Sciences [NIEHS] National Toxicology Program [NTP] U.S. Food and Drug Administration [FDA] Tox21 Assay Overview: Androgen receptor (AR) is an important member of the nuclear receptor family. Its signaling plays a critical role in AR-dependent prostate cancer and other androgen related diseases. […]
Records with an inconclusive call do not appear. The source made the active and inactive calls. Calls come from the whole dose curve; as a rule, active = well fitted inhibition curve with a large enough effect in the repeat runs; inconclusive = weak or mixed curves; inactive = no such curve, though single readings can be large or run the other way.
Would you mind answering with one of these outcomes? yes (1) = active, no (0) = inactive

Study these solved cases before continuing.
compound	assayedSystem	cat
CCCCCCCCCCCCCOS(=O)(=O)O	Androgen receptor (Homo sapiens) (UniProt P10275)	no (0)
Cc1cn([C@H]2C[C@H](F)[C@@H](CO)O2)c(=O)[nH]c1=O	Androgen receptor (Homo sapiens) (UniProt P10275)	no (0)
CNS(=O)(=O)c1cc(C(=O)N2CCC(CCN3C4CCC3CC(n3c(C)nc5ccccc53)C4)(c3cccc(F)c3)CC2)c(Cl)cc1F (configuration not stated)	Androgen receptor (Homo sapiens) (UniProt P10275)	yes (1)

Prompt: Please share the test call associated with O=S(=O)(Cl)c1c(Cl)cccc1Cl .
Response: no (0)

Prompt: Same lookup for O=C(c1ccccc1)c1ccc(O)cc1 , please.
Response: yes (1)

Prompt: Same lookup for CCC(C)(C)C(=O)O , please.
Response: no (0)

Prompt: Same lookup for COC(=O)C1=C(C)NC(C)=C(C(=O)OC(C)(C)CN(C)CCC(c2ccccc2)c2ccccc2)C1c1cccc([N+](=O)[O-])c1 (configuration not stated) , please.
Response: yes (1)

Prompt: Same lookup for Cc1cc(CCCOc2c(C)cc(-c3noc(C(F)(F)F)n3)cc2C)on1 , please.
Response: yes (1)

Prompt: Same lookup for O=NN(CCCl)C(=O)NCCCl , please.
Response: no (0)

Prompt: Same lookup for COC(=O)CC(C(C)=O)C(=O)OC (configuration not stated) , please.
Response: no (0)

Prompt: Same lookup for CCCCCCCCCCCCCC(=O)OCC(O)CO (configuration not stated) , please.
Response: no (0)

Prompt: Same lookup for Nc1cccc2c(N)cccc12 , please.
Response: no (0)
